Measured values drawn from patent US20230242646A1 for this set.

# experimental-system: T1, recombinant C-terminal polyhistidine-tagged human (extracellular) CD89 (Sino Biological) (human, UniProt P24071 22-227)
# T1 construct: extracellular domain; bought protein; also called rhuCD89; soluble monomeric rhuCD89
# assay: ELISA, coated rhuCD89
parameter: EC50

CD89/IgA blocking mouse anti-human CD89-specific antibody 10E7 (antibody, V domains shown, biotinylated in the Octet assay; also called mouse 10E7) VH: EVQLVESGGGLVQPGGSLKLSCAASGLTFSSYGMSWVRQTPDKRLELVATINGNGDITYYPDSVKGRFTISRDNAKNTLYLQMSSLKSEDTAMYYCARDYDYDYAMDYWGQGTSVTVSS VL: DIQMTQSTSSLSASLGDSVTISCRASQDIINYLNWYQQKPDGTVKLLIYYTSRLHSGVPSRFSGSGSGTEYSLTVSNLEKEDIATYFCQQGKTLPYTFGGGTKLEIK | 0.02 µg/mL
CD89/IgA blocking mouse anti-human CD89-specific antibody 20B4 (antibody, V domains shown) VH: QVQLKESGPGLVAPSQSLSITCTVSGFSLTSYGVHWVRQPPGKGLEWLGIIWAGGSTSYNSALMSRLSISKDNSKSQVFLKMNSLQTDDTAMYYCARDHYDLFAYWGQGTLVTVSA VL: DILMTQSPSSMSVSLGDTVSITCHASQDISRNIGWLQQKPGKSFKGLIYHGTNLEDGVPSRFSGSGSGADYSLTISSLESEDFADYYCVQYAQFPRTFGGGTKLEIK | 0.013 µg/mL
CD89/IgA blocking mouse anti-human CD89-specific antibody 16D6 (antibody, V domains shown, also called 16D16 [sic]) VH: QVQLQQSGAELMKPGASVKISCKATGYTFSTYWIEWVKQRPGHGLEWIGEILPGSGSANYNEKFKGKATFTADTSSNTAYMQLSSLTFEDSAVYYCAKGFGSPYYYAMDYWGQGTSVTVSS VL: EIVLTQSPALMAASPGEKVTITCSVSSSISSSNLHWYQQKSETSPKPWIYGTSKLASGVPVRFSGSGSGTSYSLTISNMEAEDAATYYCQQWSSFPLTFGGGTKLEIK | 0.119 µg/mL
CD89/IgA blocking mouse anti-human CD89-specific antibody 30C7 (antibody, V domains shown) VH: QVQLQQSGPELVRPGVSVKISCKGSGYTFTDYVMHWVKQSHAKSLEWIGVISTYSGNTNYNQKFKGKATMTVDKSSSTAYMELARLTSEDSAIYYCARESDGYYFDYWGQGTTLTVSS VL: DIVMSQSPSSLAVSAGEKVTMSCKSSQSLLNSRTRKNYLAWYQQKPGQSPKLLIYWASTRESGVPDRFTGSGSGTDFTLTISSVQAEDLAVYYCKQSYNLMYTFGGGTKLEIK | 0.029 µg/mL

Now for the binder whose EC50 we want.
// query // EC50 lookup, key: CD89/IgA blocking mouse anti-human CD89-specific antibody 8F3 (antibody, V domains shown, also called mouse 8F3) VH: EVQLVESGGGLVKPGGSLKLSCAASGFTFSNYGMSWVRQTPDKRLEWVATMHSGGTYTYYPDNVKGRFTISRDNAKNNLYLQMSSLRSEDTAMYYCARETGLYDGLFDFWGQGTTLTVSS VL: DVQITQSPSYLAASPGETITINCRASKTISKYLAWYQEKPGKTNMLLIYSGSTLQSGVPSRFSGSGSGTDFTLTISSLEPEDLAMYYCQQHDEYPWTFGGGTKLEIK
// result 0.052 µg/mL
